Sequence of the target: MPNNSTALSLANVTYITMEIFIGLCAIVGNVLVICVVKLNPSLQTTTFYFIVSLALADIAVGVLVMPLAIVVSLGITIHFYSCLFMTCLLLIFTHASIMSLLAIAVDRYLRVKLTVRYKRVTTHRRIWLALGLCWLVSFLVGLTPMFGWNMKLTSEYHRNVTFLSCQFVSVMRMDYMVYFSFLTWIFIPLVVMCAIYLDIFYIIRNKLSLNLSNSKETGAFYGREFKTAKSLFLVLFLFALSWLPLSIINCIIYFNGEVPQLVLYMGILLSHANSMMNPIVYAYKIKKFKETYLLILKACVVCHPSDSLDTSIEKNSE
pKi: −log10 of the molar value.
Classification field: enter criterion met for pKi values not below 6, criterion not met for values below it.

1) CSc1nc(N)n2nc(-c3ccco3)nc2n1 criterion not met
2) CSc1nc(NC(=O)Nc2ccc(C)cc2)n2nc(-c3ccco3)nc2n1 criterion not met

Now turn to the next compound.
Does the reported pKi for Nc1nc(Oc2ccccc2)nc2nc(-c3ccco3)nn12 fall at or above the 6 mark?
criterion met
